Taken from patent US20140205537A1.

# system_name: G2019S LRRK2 (Homo sapiens, UniProt Q5S007, G2019S)
# Sequence (Q5S007 969-2527 G2019S): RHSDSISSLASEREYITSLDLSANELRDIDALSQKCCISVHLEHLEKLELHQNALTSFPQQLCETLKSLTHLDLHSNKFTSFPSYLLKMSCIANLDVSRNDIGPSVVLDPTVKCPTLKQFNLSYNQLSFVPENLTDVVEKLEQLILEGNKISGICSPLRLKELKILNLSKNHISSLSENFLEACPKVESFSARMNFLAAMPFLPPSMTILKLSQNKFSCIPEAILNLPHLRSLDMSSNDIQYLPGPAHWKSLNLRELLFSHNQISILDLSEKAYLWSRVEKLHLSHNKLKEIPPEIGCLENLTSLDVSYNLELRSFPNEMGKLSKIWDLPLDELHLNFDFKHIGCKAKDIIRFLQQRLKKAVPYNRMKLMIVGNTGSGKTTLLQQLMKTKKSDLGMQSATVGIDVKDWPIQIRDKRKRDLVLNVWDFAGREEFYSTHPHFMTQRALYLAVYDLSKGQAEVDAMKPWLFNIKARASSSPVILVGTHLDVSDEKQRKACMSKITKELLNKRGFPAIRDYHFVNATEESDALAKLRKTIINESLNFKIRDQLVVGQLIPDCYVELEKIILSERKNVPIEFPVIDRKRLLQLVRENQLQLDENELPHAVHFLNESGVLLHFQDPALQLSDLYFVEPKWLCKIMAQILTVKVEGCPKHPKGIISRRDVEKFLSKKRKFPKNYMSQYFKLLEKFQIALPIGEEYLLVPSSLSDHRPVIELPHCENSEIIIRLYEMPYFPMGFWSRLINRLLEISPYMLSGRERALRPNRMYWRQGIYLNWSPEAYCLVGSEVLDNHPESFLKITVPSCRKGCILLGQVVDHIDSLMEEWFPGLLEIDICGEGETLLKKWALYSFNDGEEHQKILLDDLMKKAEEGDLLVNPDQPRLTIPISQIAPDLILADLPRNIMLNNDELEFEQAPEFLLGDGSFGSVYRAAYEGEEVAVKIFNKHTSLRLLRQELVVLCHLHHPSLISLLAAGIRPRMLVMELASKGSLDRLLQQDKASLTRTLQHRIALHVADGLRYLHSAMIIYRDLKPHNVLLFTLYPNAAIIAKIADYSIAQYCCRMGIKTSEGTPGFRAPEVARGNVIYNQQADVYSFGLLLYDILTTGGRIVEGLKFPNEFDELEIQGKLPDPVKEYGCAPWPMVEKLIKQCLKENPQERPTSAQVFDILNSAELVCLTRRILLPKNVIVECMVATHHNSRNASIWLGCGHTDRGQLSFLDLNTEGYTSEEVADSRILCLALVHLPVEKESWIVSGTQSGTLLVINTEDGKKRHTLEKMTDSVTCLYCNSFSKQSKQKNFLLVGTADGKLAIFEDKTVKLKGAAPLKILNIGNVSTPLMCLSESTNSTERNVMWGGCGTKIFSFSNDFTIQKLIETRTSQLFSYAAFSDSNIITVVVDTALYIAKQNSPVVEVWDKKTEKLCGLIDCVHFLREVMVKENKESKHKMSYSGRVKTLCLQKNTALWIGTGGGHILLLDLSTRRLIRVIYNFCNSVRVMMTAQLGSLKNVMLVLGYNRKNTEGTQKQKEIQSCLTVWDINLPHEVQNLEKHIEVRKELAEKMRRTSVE
# experimental_protocol: G2019S LRRK2 inhibition (Invitrogen SelectScreen / TR-FRET biochemical assay)
# Design: The protein construct used in the assay is GST tagged 969-2527; GST; purchased Invitrogen
# assay_context: numeric value
Consider the following molecules and their measured IC50 readings.
Dear colleague, please return just the value in µM, with no unit written.

Below, 3 molecules whose answers are already recorded.
[
  {
    "smiles_notation": "Cc1ncc(/C=C2\\C(=O)Nc3ccc(OC(C)C)cc32)[nH]1",
    "system_name": "G2019S LRRK2 (Homo sapiens, UniProt Q5S007, G2019S)",
    "IC50, µM": 0.0012
  },
  {
    "smiles_notation": "Cc1cnc(/C=C2\\C(=O)Nc3ccccc32)[nH]1",
    "system_name": "G2019S LRRK2 (Homo sapiens, UniProt Q5S007, G2019S)",
    "IC50, µM": 0.181
  },
  {
    "smiles_notation": "Cc1ncc(/C=C2\\C(=O)Nc3ccc(S(C)(=O)=O)cc32)[nH]1",
    "system_name": "G2019S LRRK2 (Homo sapiens, UniProt Q5S007, G2019S)",
    "IC50, µM": 0.125
  }
]

Prompt line: Dear colleague, I am looking for the recorded IC50 of the following molecule: COCc1ncc(/C=C2\C(=O)Nc3ccc(OC)cc32)[nH]1
Response line: 0.0387

Prompt line: Which IC50 value belongs to Cc1ncc(/C=C2\C(=O)Nc3ccc(Cl)cc32)[nH]1 ?
Response line: 0.0164

Prompt line: Could you share which IC50 value was measured for CCc1ncc(/C=C2\C(=O)Nc3ccc(OC)cc32)[nH]1 ?
Response line: 0.0035

Prompt line: Consider the molecule COc1ccc2c(c1)/C(=C/c1cnc(C(C)C)[nH]1)C(=O)N2 and give its measured IC50.
Response line: 0.0076

Prompt line: Look up IC50: CCOc1ccc2c(c1)/C(=C/c1cnc(C)[nH]1)C(=O)N2
Response line: 0.0031

Prompt line: Entry under review: COc1ccc2c(c1)NC(=O)/C2=C\c1cnc(C)[nH]1 . Reported IC50?
Response line: 0.127

Prompt line: For the molecule shown here, Cc1ncc(/C=C2\C(=O)Nc3ccc(OC(F)(F)F)cc32)[nH]1 , give the reported IC50.
Response line: 0.0412
